For each of the molecules below, state its LogSel.
system_tested: human GABAA α2β2γ1 receptor (Homo sapiens (Human), UniProt P47869+Q8N1C3)
procedure_summary: Radioligand binding assay, [3H]RO7239181 competition, γ1-containing GABAA subtypes
test_settings: Log[Ki α1β3γ2 (nM)/Ki α2β2γ1 (nM)]
Answers are plain numbers.

C[C@@H]1N=C(c2c(F)cccc2F)c2c(ccc(Cl)c2Cl)-n2c1n[nH]c2=O [Example 64]
1.66
C[C@@H]1N=C(c2c(F)cccc2F)c2c(ccc(Cl)c2Cl)-n2c(-c3cnn(C)c3)nnc21 [Example 53]
1.91
CCc1ccc2c(c1Cl)C(c1c(F)cccc1F)=N[C@@H](C)c1nnc(C)n1-2 [Example 109]
1.06
Cc1nnc2n1-c1ccc(C(C)(F)F)c(Cl)c1C(c1c(F)cccc1F)=N[C@H]2C [Example 93]
2.18
Cc1cc(-c2nnc3n2-c2ccc(Cl)c(Cl)c2C(c2c(F)cccc2F)=N[C@H]3C)on1 [Example 87]
1.85

Go through the list and state LogSel for each entry.
1. C[C@@H]1N=C(c2c(F)cccc2F)c2c(ccc(Cl)c2Br)-n2c(-c3cccnn3)nnc21 [Example 73]
2. Cc1nnc2n1-c1ccc(Cl)cc1C(c1ccccc1)=NC2 [Alprazolam, reference compound]
3. Cc1ccc2c(c1Cl)C(c1c(F)cccc1F)=N[C@@H](C)c1nnc(C)n1-2 [Example 97]

1: 1.94; 2: −2.3; 3: 1.19

* * *

system_tested: human GABAA α2β2γ1 receptor (Homo sapiens (Human), UniProt P47869+Q8N1C3)
procedure_summary: Radioligand binding assay, [3H]RO7239181 competition, γ1-containing GABAA subtypes
test_settings: Ki α1β3γ2 (nM)/Ki α2β2γ1 (nM)
Protocol: The affinity of compounds at GABAA γ1 subunit-containing receptors was measured by competition for [^3H]RO7239181 (67.3 Ci/mmol; Roche) binding to membranes from HEK293F cells (ThermoFisher R79007) expressing human (transiently transfected) receptors of composition α5β2γ1, α2β2γ1, α1β2γ1. […]
For each of the compounds below, state its γ2/γ1 Selectivity Ratio.

Before answering, review these 3 worked examples.
Cc1nnc2n1-c1ccc(Br)c(Cl)c1C(c1c(F)cccc1F)=N[C@H]2CO
18.8
Cc1nnc2n1-c1ccc(Cl)c(Br)c1C(c1c(F)cccc1F)=N[C@H]2C
45.3
C[C@@H]1N=C(c2c(F)cccc2F)c2c(ccc(Cl)c2Br)-n2c(-c3ccn(C)n3)nnc21
43.0

Go through the list and state γ2/γ1 Selectivity Ratio for each entry.
1. Cc1nnc2n1-c1ccc(C(F)F)c(Cl)c1C(c1c(F)cccc1F)=N[C@H]2C
2. Cc1nnc2n1-c1ccc(C(F)(F)F)cc1C(c1c(F)cccc1F)=NC2 [RE-B, reference compound]
3. Cc1cc(-c2nnc3n2-c2ccc(Cl)c(Cl)c2C(c2c(F)cccc2F)=N[C@H]3C)nc(C)n1

1: 36.4; 2: 0.23; 3: 34.1

* * *

For each of the compounds below, state its Fold increase h-GABA-A α2β2γ1 oocyte @ 30-fold Ki.
system_tested: h-GABA-A α2β2γ1 (Homo sapiens (Human), UniProt P47869+Q8N1C3)
procedure_summary: Two-electrode voltage clamp electrophysiology in Xenopus oocytes expressing GABAA receptors
Type: cell-based
test_settings: GABA EC20, test compound at about 30-fold its Ki α2β2γ1, at least 3 oocytes
Answers are plain numbers.

Before answering, review these 6 worked examples.
Cc1nnc2n1-c1ccc(C(F)(F)F)c(Cl)c1C(c1c(F)cccc1F)=N[C@H]2CO
2.21
C[C@@H]1N=C(c2c(F)cccc2F)c2c(ccc(Cl)c2Br)-n2c(-c3cccnn3)nnc21
2.05
CC[C@@H]1N=C(c2c(F)cccc2F)c2c(ccc(Br)c2Cl)-n2c(C)nnc21
2.07
C[C@@H]1N=C(c2c(F)cccc2F)c2c(ccc(Cl)c2Br)-n2c(-c3ccn(C)n3)nnc21
1.46
Cc1ccc2c(c1Cl)C(c1c(F)cccc1F)=N[C@@H](C)c1nnc(C)n1-2
2.48
CCc1ccc2c(c1Cl)C(c1c(F)cccc1F)=N[C@@H](C)c1nnc(C)n1-2
3.30

Go through the list and state Fold increase h-GABA-A α2β2γ1 oocyte @ 30-fold Ki for each entry.
1. C[C@@H]1N=C(c2ncccc2F)c2c(ccc(Cl)c2Cl)-n2c(-c3cccnn3)nnc21
2. Cc1nnc2n1-c1ccc(C(C)(F)F)c(Cl)c1C(c1c(F)cccc1F)=N[C@H]2C
3. Cc1nnc2n1-c1ccc(C(F)F)c(Cl)c1C(c1c(F)cccc1F)=N[C@H]2C
4. Cc1nnc2n1-c1ccc(Cl)c(Cl)c1C(c1c(F)cccc1F)=N[C@H]2C
5. C[C@@H]1N=C(c2c(F)cccc2F)c2c(ccc(Cl)c2Br)-n2c1n[nH]c2=O
6. Cc1cc(-c2nnc3n2-c2ccc(Cl)c(Cl)c2C(c2c(F)cccc2F)=N[C@H]3C)ncn1
7. Cc1nnc2n1-c1ccc(Br)c(Cl)c1C(c1c(F)cccc1F)=N[C@H]2C
8. C[C@@H]1N=C(c2c(F)cccc2F)c2c(ccc(Cl)c2Cl)-n2c(-c3ccncn3)nnc21

1: 9.91; 2: 2.69; 3: 2.35; 4: 1.45; 5: 1.88; 6: 1.47; 7: 1.57; 8: 2.00

Go through the list and state Fold increase h-GABA-A α2β2γ1 oocyte @ 30-fold Ki for each entry.
1. C[C@@H]1N=C(c2ncccc2F)c2c(ccc(Cl)c2Cl)-n2c(C3CC3)nnc21
2. C[C@@H]1N=C(c2c(F)cccc2F)c2c(ccc(Cl)c2Cl)-n2c(-c3cccnn3)nnc21
3. OC1N=C(c2ccccc2F)c2c(ccc(Br)c2Cl)-n2c(-c3cccnn3)nnc21 (centres unmarked)

1. 2.09
2. 1.78
3. 2.08

* * *

system_tested: human GABAA α2β2γ1 receptor (Homo sapiens (Human), UniProt P47869+Q8N1C3)
procedure_summary: Radioligand binding assay, [3H]RO7239181 competition, γ1-containing GABAA subtypes
test_settings: Ki α1β3γ2 (nM)/Ki α2β2γ1 (nM)
For each of the compounds below, state its γ2/γ1 Selectivity Ratio.
Numbers only.

Before answering, review these 3 worked examples.
CC[C@@H]1N=C(c2c(F)cccc2F)c2c(ccc(Br)c2Cl)-n2c(C)nnc21 [Example 98]
20.3
Cc1ncc2n1-c1ccc(Cl)cc1C(c1ccccc1F)=NC2 [Midazolam, reference compound]
0.0068
C[C@@H]1N=C(c2ncccc2F)c2c(ccc(Cl)c2Cl)-n2c(C3CC3)nnc21 [Example 68]
27.4

Go through the list and state γ2/γ1 Selectivity Ratio for each entry.
1. Cc1nnc2n1-c1ccc(C(F)(F)F)c(Cl)c1C(c1c(F)cccc1F)=N[C@H]2CO [Example 106]
2. C[C@@H]1N=C(c2ncccc2F)c2c(ccc(Cl)c2Cl)-n2c(-c3cnn(C)c3)nnc21 [Example 67]
3. Cc1nnc2n1-c1ccc(C(F)(F)F)c(Cl)c1C(c1c(F)cccc1F)=N[C@H]2C [Example 92]
4. C[C@@H]1N=C(c2c(F)cccc2F)c2c(ccc(Cl)c2Cl)-n2c(-c3ccncn3)nnc21 [Example 52]

107.1
53.5
102.0
112.4

Go through the list and state γ2/γ1 Selectivity Ratio for each entry.
1. Cc1ccc2c(c1Cl)C(c1c(F)cccc1F)=N[C@@H](C)c1nnc(C)n1-2 [Example 97]
2. C[C@@H]1N=C(c2c(F)cccc2F)c2c(ccc(C(F)(F)F)c2Cl)-n2cnnc21 [Example 107]
3. OC1N=C(c2c(F)cccc2F)c2c(ccc(Br)c2Cl)-n2cnnc21 (stereo not shown) [Example 31]
4. Cc1nnc2n1-c1ccccc1C(c1c(F)cccc1F)=NC2 [RE-C, reference compound]
5. C[C@@H]1N=C(c2ncccc2F)c2c(ccc(Br)c2Cl)-n2c(C3CC3)nnc21 [Example 83]
6. Cc1nnc2n1-c1ccc(Br)c(Cl)c1C(c1ncccc1F)=N[C@H]2C [Example 85]

1: 15.7; 2: 51.8; 3: 17.3; 4: 0.0092; 5: 36.8; 6: 13.3

All figures here come from patent US20240002393A1.
